Biological target: HCV polymerase (NS5B) type 1a (Hepatitis C virus genotype 1a, UniProt P26664)
Construct: made in house; host or cells: Escherichia coli (by the 'similar method' of the 1b enzyme)
Experiment: Assay of enzyme (HCV polymerase) inhibitory activity, type 1a enzyme
Assay type: biochemical, HCV type 1a (cloned from the blood of patients)
Settings: HCV polymerase inhibitory activity (IC50), 1a, type 1a enzyme 1.5 μg/ml, 25° C., 60 min
pIC50: −log10 of the molar value.
Task for the reader: assign each of the following molecules its reported pIC50.

MOLECULE: CC(=O)N1CCN(S(=O)(=O)c2ccc(OCC(F)(F)F)cc2)[C@@H](C(=O)NCc2ccc(C(C)C)cc2)C1
pIC50: 6.00 to 7.00

MOLECULE: CCCN(C)c1ccc(CNC(=O)C2CN(C(C)=O)CCN2S(=O)(=O)c2ccc(C(C)C)cc2)cc1 (centres unmarked)
pIC50: < 6.00

MOLECULE: Cc1nc(N2CCN(S(=O)(=O)c3ccc(OC(F)(F)F)cc3)[C@@H](C(=O)NCc3ccc(C(C)C)nc3)C2)sc1C(=O)O
pIC50: > 7.00

MOLECULE: CC(C)c1ccc(CNC(=O)[C@H]2CN(C(=O)Nc3ccccc3Cl)CCN2S(=O)(=O)c2ccc(C(F)(F)F)cc2)cc1
pIC50: < 6.00

MOLECULE: CCC(F)(F)c1ccc(CNC(=O)[C@H]2CN(c3ccnc(N)n3)CCN2S(=O)(=O)c2ccc(OC(F)(F)F)cc2)cc1
pIC50: > 7.00

MOLECULE: CCC(=O)N1CCN(S(=O)(=O)c2ccc(I)cc2)C(C(=O)NCc2ccc(N(C)C)cc2)C1 (centres unmarked)
pIC50: < 6.00

Quick one: give me pIC50 for each item below, same order please.
1. COc1ccc(S(=O)(=O)N2CCN(C(C)=O)C[C@@H]2C(=O)NCc2ccc(C(C)C)cc2)cc1CC(=O)O
2. CC(=O)N1CCN(S(=O)(=O)c2ccc(C(C)C)cc2)[C@@H](C(=O)NCc2ccc(CCO)cc2)C1
3. CC(=O)N1CCN(S(=O)(=O)c2ccc(OC(F)(F)F)cc2)[C@@H](C(=O)NCc2ccc(Br)cc2)C1
4. CCC(F)(F)c1ccc(CNC(=O)[C@H]2CN(C(C)=O)CCN2S(=O)(=O)c2ccc(OC(F)(F)F)cc2)cc1
5. CC(C)(C)c1ccc(CNC(=O)[C@H]2CN(c3ccnc(O)n3)CCN2S(=O)(=O)c2ccc(OC(F)(F)F)cc2)cc1
6. CCOC(=O)C(=O)N1CCN(S(=O)(=O)c2ccc(C(F)(F)F)cc2)[C@@H](C(=O)NCc2ccc(C(C)C)cc2)C1
7. CCCCc1ccc(S(=O)(=O)N2CCN(C(C)=O)CC2C(=O)NCc2ccc(C(F)(F)F)cc2)cc1 (centres unmarked)

-- reply
1: < 6.00; 2: < 6.00; 3: 6.00 to 7.00; 4: > 7.00; 5: > 7.00; 6: < 6.00; 7: < 6.00

-- ask Need pIC50, item CCNC(=O)N1CCc2nc(N3CCN(S(=O)(=O)c4ccc(OC(F)(F)F)cc4)[C@@H](C(=O)NCc4ccc(C(C)(C)C)cc4)C3)sc2C1
-- reply > 7.00

###

Task for the reader: assign each of the following molecules its reported pIC50.
Target: HCV polymerase (NS5B) type 1a (Hepatitis C virus genotype 1a, UniProt P26664)
Construct: made in house; host or cells: Escherichia coli (by the 'similar method' of the 1b enzyme)
Experiment: Assay of enzyme (HCV polymerase) inhibitory activity, type 1a enzyme
Format: biochemical, HCV type 1a (cloned from the blood of patients)
Conditions: HCV polymerase inhibitory activity (IC50), 1a, type 1a enzyme 1.5 μg/ml, 25° C., 60 min
pIC50: −log10 of the molar value. Counter-ions that a name gives are not always drawn.

MOLECULE: CC(=O)N1CCN(S(=O)(=O)c2ccc(C(F)(F)F)cc2)[C@@H](C(=O)NCc2ccc(C(C)C)cc2)C1
pIC50: 6.00 to 7.00
--
MOLECULE: CCCc1ccc(CNC(=O)[C@H]2CN(c3nc(C)c(C(=O)NS(C)(=O)=O)s3)CCN2S(=O)(=O)c2ccc(OC(F)(F)F)cc2)cc1
pIC50: 6.00 to 7.00

Quick one: give me pIC50 for each item below, same order please.
1. CN(C)c1ccc(CNC(=O)[C@H]2CN(C(=O)Cc3ccncc3)CCN2S(=O)(=O)c2ccc(OC(F)(F)F)cc2)cc1
2. CCCc1ccc(CNC(=O)[C@H]2CN(c3cc(C)c(C(N)=O)nn3)CCN2S(=O)(=O)c2ccc(OC(F)(F)F)cc2)cc1
3. CCC(F)(F)c1ccc(CNC(=O)[C@H]2CN(c3cnc4c(n3)NC(=O)OC4)CCN2S(=O)(=O)c2ccc(OC(F)(F)F)cc2)cc1
4. CC(C)c1ccc(CNC(=O)[C@H]2CN(C(=O)CNCC(=O)O)CCN2S(=O)(=O)c2ccc(C(F)(F)F)cc2)cc1 [Example 384, hydrochloride]
5. Cc1nc(N2CCN(S(=O)(=O)c3ccc(OC(F)(F)F)cc3)[C@@H](C(=O)NCc3ccccc3)C2)sc1C(=O)O
6. COc1ccc(CNC(=O)[C@H]2CN(C(C)=O)CCN2S(=O)(=O)c2ccc(OC(F)(F)F)cc2)cc1O
7. CCC(F)(F)c1ccc(CNC(=O)[C@H]2CN(C(=O)Nc3cscn3)CCN2S(=O)(=O)c2ccc(OC(F)(F)F)cc2)cc1
8. CCC(F)(F)c1ccc(CNC(=O)[C@H]2CN(c3cnc(CN(C)C)cn3)CCN2S(=O)(=O)c2ccc(OC(F)(F)F)cc2)cc1

-- reply
1. > 7.00
2. > 7.00
3. > 7.00
4. 6.00 to 7.00
5. < 6.00
6. < 6.00
7. > 7.00
8. > 7.00

###

Biological target: HCV polymerase (NS5B) type 1b (Hepatitis C virus genotype 1b, UniProt P26663)
Construct: a region encoding NS5B (J Virol 1991 March, 65(3), 1105-13, 544 amino acids after deletion of 47 amino acids on the C-terminal); 6xHis (C); made in house; host or cells: Escherichia coli
Assay: Assay of enzyme (HCV polymerase) inhibitory activity, type 1b enzyme
Type: biochemical, HCV BK strain (type 1b)
Settings: HCV polymerase inhibitory activity (IC50), 1b, type 1b enzyme 0.5 μg/ml, 25° C., 60 min
pIC50: −log10 of the molar value. Structures can show the parent of a compound that is named as a salt.
PROPERTY LABEL: pIC50

COMPOUND: CC(=O)N1CCN(S(=O)(=O)c2ccc(C(C)C)cc2)[C@@H](C(=O)NCCc2ccccc2Cl)C1 [Example 149]
REPORTED: < 6.00
--
COMPOUND: CC(C)c1ccc(CNC(=O)[C@H]2CN(C(=O)Cn3cnnc3)CCN2S(=O)(=O)c2ccc(C(F)(F)F)cc2)cc1 [Example 230]
REPORTED: > 7.00
--
COMPOUND: CC(C)c1ccc(CNC(=O)[C@H]2CN(C(=O)CNCCC(=O)O)CCN2S(=O)(=O)c2ccc(C(F)(F)F)cc2)cc1 [Example 391, hydrochloride]
REPORTED: 6.00 to 7.00
--
COMPOUND: CCCc1ccc(CNC(=O)[C@H]2CN(C(C)=O)CCN2S(=O)(=O)c2ccc(OC(F)(F)F)cc2)cc1N [Example 635]
REPORTED: 6.00 to 7.00
--
COMPOUND: CC(C)c1ccc(CNC(=O)[C@H]2CN(c3ncc[nH]3)CCN2S(=O)(=O)c2ccc(C(F)(F)F)cc2)cc1 [Example 353]
REPORTED: 6.00 to 7.00
--
COMPOUND: COc1ccccc1NC(=O)N1CCN(S(=O)(=O)c2ccc(C(F)(F)F)cc2)[C@@H](C(=O)NCc2ccc(C(C)C)cc2)C1 [Example 272]
REPORTED: 6.00 to 7.00

Quick one: give me pIC50 for each item below, same order please.
1. CCNC(=O)N1CCc2nc(N3CCN(S(=O)(=O)c4ccc(OC(F)(F)F)cc4)[C@@H](C(=O)NCc4ccc(C(C)(C)C)cc4)C3)sc2C1 [Example 601]
2. COCc1ccc(CNC(=O)[C@H]2CN(c3nc(C)c(C(=O)O)s3)CCN2S(=O)(=O)c2ccc(OC(F)(F)F)cc2)cc1 [Example 451]

-- reply
["> 7.00", "> 7.00"]

###

Target: HCV polymerase (NS5B) type 1b (Hepatitis C virus genotype 1b, UniProt P26663)
Construct: a region encoding NS5B (J Virol 1991 March, 65(3), 1105-13, 544 amino acids after deletion of 47 amino acids on the C-terminal); 6xHis (C); made in house; host or cells: Escherichia coli
Assay: Assay of enzyme (HCV polymerase) inhibitory activity, type 1b enzyme
Format: biochemical, HCV BK strain (type 1b)
Details: HCV polymerase inhibitory activity (IC50), 1b, type 1b enzyme 0.5 μg/ml, 25° C., 60 min
Where a name gives a salt, the structure may show the parent alone.
PROPERTY LABEL: IC50

Before answering, review these 5 worked examples.
COMPOUND: CCN(C)c1ccc(CNC(=O)[C@H]2CN(c3cnc4cncnc4n3)CCN2S(=O)(=O)c2ccc(OC(F)(F)F)cc2)cc1
IC50: < 100 nM
--
COMPOUND: CC(C)c1ccc(CNC(=O)[C@H]2CN(C(=O)CN)CCN2S(=O)(=O)c2ccc(C(F)(F)F)cc2)cc1 [Example 225, hydrochloride]
IC50: 100 to 1000 nM
--
COMPOUND: CC(C)c1ccc(CNC(=O)[C@H]2CN(C(=O)Cn3ccnn3)CCN2S(=O)(=O)c2ccc(C(F)(F)F)cc2)cc1
IC50: < 100 nM
--
COMPOUND: CN(C)c1ccc(CNC(=O)[C@H]2CN(c3cnc(C(=O)O)cn3)CCN2S(=O)(=O)c2ccc(OC(F)(F)F)cc2)cc1
IC50: < 100 nM
--
COMPOUND: CC(=O)N1CCN(S(=O)(=O)c2ccc(C(C)C)cc2)C(C(=O)NCc2ccc(N)cc2)C1 (centres unmarked)
IC50: > 1000 nM

Quick one: give me IC50 for each item below, same order please.
1. CCC(F)(F)c1ccc(CNC(=O)[C@H]2CN(C(=O)Nc3ccnc(C(=O)N4CCOCC4)c3)CCN2S(=O)(=O)c2ccc(OC(F)(F)F)cc2)cc1
2. CC(C)c1ccc(CNC(=O)[C@H]2CN(C(=O)CNC(=O)CCC(=O)O)CCN2S(=O)(=O)c2ccc(C(F)(F)F)cc2)cc1
3. CC(C)c1ccc(CNC(=O)[C@H]2CN(C(=O)Nc3ccccc3)CCN2S(=O)(=O)c2ccc(C(F)(F)F)cc2)cc1
4. Cc1nc(N2CCN(S(=O)(=O)c3ccc(OC(F)(F)F)cc3)[C@@H](C(=O)NCc3ccc(C(C)C)nc3)C2)sc1C(=O)O
5. CC(C)c1ccc(CNC(=O)[C@H]2CN(c3cnc(C(=O)O)c(N)n3)CCN2S(=O)(=O)c2ccc(C(F)(F)F)cc2)cc1
6. COC(=O)CCc1cc(S(=O)(=O)N2CCN(C(C)=O)C[C@@H]2C(=O)NCc2ccc(C(C)C)cc2)ccc1OC
7. CC(=O)N1CCN(S(=O)(=O)c2ccc(OC(F)(F)F)cc2)C(C(=O)NCc2ccc(C(F)(F)F)cc2)C1 (centres unmarked)

-- reply
["< 100 nM", "100 to 1000 nM", "100 to 1000 nM", "< 100 nM", "< 100 nM", "100 to 1000 nM", "> 1000 nM"]

Quick one: give me IC50 for each item below, same order please.
1. CCOC(=O)Cc1nnn(CC(=O)N2CCN(S(=O)(=O)c3ccc(OC(F)(F)F)cc3)[C@@H](C(=O)NCc3ccc(C(F)(F)CC)cc3)C2)n1
2. CCCc1ccc(CNC(=O)[C@H]2CN(c3cnc(C(=O)O)cn3)CCN2S(=O)(=O)c2ccc(OC(F)(F)F)cc2)c(C)c1
3. Cc1nc(N2CCN(S(=O)(=O)c3ccc(OC(F)(F)F)cc3)[C@@H](C(=O)NCc3ccc(C(C)(C)C)cc3)C2)sc1C(=O)O
4. COCc1ccc(CNC(=O)[C@H]2CN(c3cnc(C(=O)O)cn3)CCN2S(=O)(=O)c2ccc(OC(F)(F)F)cc2)cc1

-- reply
< 100 nM
< 100 nM
< 100 nM
< 100 nM

Quick one: give me IC50 for each item below, same order please.
1. CC(C)c1ccc(CNC(=O)[C@H]2CN(c3ncc(C(=O)O)c(O)n3)CCN2S(=O)(=O)c2ccc(C(F)(F)F)cc2)cc1
2. CC(C)c1ccc(S(=O)(=O)N2CCN(C=O)CC2C(=O)NCc2ccc(C(F)(F)F)cc2)cc1 (centres unmarked)
3. CC(=O)N1CCN(S(=O)(=O)c2ccc(OCC(F)(F)F)cc2)[C@@H](C(=O)NCc2ccc(C(C)C)cc2)C1
4. COC(=O)c1cnc(N2CCN(S(=O)(=O)c3ccc(C(F)(F)F)cc3)[C@@H](C(=O)NCc3ccc(C(C)C)cc3)C2)cn1
5. CCCc1ccc(CNC(=O)[C@H]2CN(C(=O)Nc3nc(CCO)cs3)CCN2S(=O)(=O)c2ccc(OC(F)(F)F)cc2)cc1
6. CCC(F)(F)c1ccc(CNC(=O)[C@H]2CN(C(=O)Nc3nccs3)CCN2S(=O)(=O)c2ccc(OC(F)(F)F)cc2)cc1
7. CN(C)c1ccc(CNC(=O)C2CN(C(=O)CC3CCCCC3)CCN2S(=O)(=O)c2ccc(I)cc2)cc1 (centres unmarked)
8. Cc1nc(N2CCN(S(=O)(=O)c3ccc(OC(F)(F)F)cc3)[C@@H](C(=O)NCc3ccc(N(C)C)nc3)C2)sc1C(=O)O

-- reply
1. 100 to 1000 nM
2. > 1000 nM
3. < 100 nM
4. < 100 nM
5. 100 to 1000 nM
6. < 100 nM
7. > 1000 nM
8. < 100 nM

Quick one: give me IC50 for each item below, same order please.
1. CC(C)c1ccc(CNC(=O)[C@H]2CN(C(=O)Nc3ccccc3Cl)CCN2S(=O)(=O)c2ccc(C(F)(F)F)cc2)cc1
2. CC(=O)N1CCN(S(=O)(=O)c2ccc(O)cc2)[C@@H](C(=O)NCc2ccc(C(C)C)cc2)C1

-- reply
> 1000 nM
> 1000 nM
